Test system: L1210 leukemia ip in BDF1 mice, survival T/C
experiment.summary: NCI In Vivo Anticancer Drug Screen. Data for tumor model L1210 Leukemia (intraperitoneal) in B6D2F1 (BDF1) mice
conditions.used: endpoint: mean survival time; dose: 75.0 mg/kg/injection; schedule: Q01DX009 (ip); vehicle: Klucel (hydroxypropylcellulose) (HPC); higher = longer survival
Inconclusive results and toxic doses are left out.
assay.metric: T/C

// query Returns the measured T/C for the input compound. Input: CC(Br)CNC(=O)c1ccc([N+](=O)[O-])cc1 (stereo not given)
// result 107 % of control

// query # iterate: `c1ccc(C2(NC3=NCCO3)CCCCC2)cc1`
// result 107 % of control

// query Now consider `Cc1ccc(S(=O)(=O)OCC23CC4C5CC2C3(COS(=O)(=O)c2ccc(C)cc2)CC54)cc1` and answer again.
// result 95 % of control

// query Next compound: C=CC(=O)c1c(O)cc(O)c2c1C(C)C(=O)O2 (stereo not given)
// result 89 % of control

// query Next record, please: `CC(=O)n1cc(C=C2C(=O)CC(C)(C)CC2=O)c2ccccc21`
// result 95 % of control
